# assay_overview: Plasma protein binding in human by equilibrium dialysis method
# Type: ADME, cell-free
# condition_parameters: read-out: PPB (converted)
Please go through the items and note down their fraction unbound.
Numbers only.

# input Indicate the recorded fraction unbound value for this compound: N#Cc1ccc(-c2ccc(O[C@H]3O[C@H](CO)[C@@H](O)[C@H](O)[C@@H]3O)c(Cl)c2)cc1
# output 0.11

# input Consider the compound OC[C@H]1O[C@H](Oc2ccc(-c3ccccc3)cc2)[C@@H](O)[C@@H](O)[C@@H]1O and give its recorded fraction unbound.
# output 0.07

# input Output fraction unbound of N#Cc1ccc(-c2ccc(O[C@H]3O[C@H](CO)[C@@H](O)[C@H](O)[C@@H]3O)cc2)cc1
# output 0.01

# input Quote fraction unbound reported for O=C(c1ccc(-c2ccc(O[C@H]3O[C@H](CO)[C@@H](O)[C@H](O)[C@@H]3O)cc2)cc1)N1CCOCC1 please.
# output 0.52

Next compound, fraction unbound to be filled in.
# input Output fraction unbound of CS(=O)(=O)c1ccc(-c2ccc(O[C@H]3O[C@H](CO)[C@@H](O)[C@H](O)[C@@H]3O)cc2)cc1
# output 0.01

====

# assay_overview: physchem
# condition_parameters: buffer, pH 3
# Description: Kinetic solubility of the compound at 0.1 to 0.5 mM at pH 3 after 15 hrs by UV/Vis spectrophotometry
assay_readout: solubility kinetic at 15 h, 500 µM

# input // Input: N#CNC(=O)c1ccc(-c2ccc(O[C@H]3O[C@H](CO)[C@@H](O)[C@H](O)[C@@H]3O)cc2)cc1 . Output its solubility kinetic at 15 h, 500 µM only.
# output > 150 µg/mL

====

Assign Cmax to each entry below.
# assay_overview: Cmax in urine of C3H/HeN mouse at 50 mg/kg, iv
# Type: ADME, organism-based
# Set-up: dose 50 mg/kg, route intravenous
Numbers only, in µg/mL.

Please review the following examples before continuing.
# input Please indicate Cmax recorded for CNS(=O)(=O)c1ccc(-c2ccc(O[C@H]3O[C@H](CO)[C@@H](O)[C@H](O)[C@@H]3O)cc2)cc1
# output 387

# input Give the measured Cmax for O=C(c1ccc(-c2ccc(O[C@H]3O[C@H](CO)[C@@H](O)[C@H](O)[C@@H]3O)cc2)cc1)N1CCOCC1
# output 4610

Let us move to another entry and its Cmax.
# input Give a short answer stating reported Cmax for O=C(O)c1ccc(-c2ccc(O[C@H]3O[C@H](CO)[C@@H](O)[C@H](O)[C@@H]3O)cc2)cc1 .
# output 300

====

# assay_overview: physchem
# condition_parameters: octanol/water, pH 7.4
# cutoff 0.5 applies to logD at 2 h, 1 µM; >= gives condition met, < gives condition not met

Worked set:
# input Does the compound OC[C@H]1O[C@H](Oc2ccc(-c3cc(F)c(O)c(F)c3)cc2)[C@@H](O)[C@@H](O)[C@@H]1O have recorded logD at 2 h, 1 µM that is 0.5 or more?
# output condition met

# input hey, is logD at 2 h, 1 µM for this one >= 0.5? CNC(=O)c1ccc(-c2ccc(O[C@H]3O[C@H](CO)[C@@H](O)[C@H](O)[C@@H]3O)cc2)cc1
# output condition met

# input Decide: is the reported value of logD at 2 h, 1 µM for COC(=O)c1ccc(-c2ccc(O[C@H]3O[C@H](CO)[C@@H](O)[C@H](O)[C@@H]3O)cc2)cc1 equal to or greater than 0.5?
# output condition met

Further cases:
# input Does CS(=O)(=O)c1ccc(-c2ccc(O[C@H]3O[C@H](CO)[C@@H](O)[C@H](O)[C@@H]3O)cc2)cc1 have a reported logD at 2 h, 1 µM of at least 0.5?
# output condition not met

# input Quick check: does N#Cc1ccc(-c2ccc(O[C@H]3O[C@H](CO)[C@@H](O)[C@H](O)[C@@H]3O)cc2)cc1 have logD at 2 h, 1 µM greater than or equal to 0.5?
# output condition met

# input Determine whether measured logD at 2 h, 1 µM meets or exceeds 0.5 for N#CNC(=O)c1ccc(-c2ccc(O[C@H]3O[C@H](CO)[C@@H](O)[C@H](O)[C@@H]3O)cc2)cc1
# output condition not met

====

# assay_overview: Cmax in urine of C3H/HeN mouse at 0.625 mg/kg, iv
# Assay type: ADME, organism-based
# Parameters: dose 0.625 mg/kg, route intravenous
assay_readout: Cmax (ng/mL)
Numbers only, in ng/mL.

# input Assign Cmax to the following record: N#Cc1ccc(-c2ccc(O[C@H]3O[C@H](CO)[C@@H](O)[C@H](O)[C@@H]3O)c(Cl)c2)cc1
# output 10000

====

# assay_overview: Kinetic solubility of the compound at 0.1 to 0.5 mM at pH 3 to 7.4 after 15 hrs by UV/Vis spectrophotometry
# Type: physicochemical
# condition_parameters: buffer, read-out: Kinetic_solubility
assay_readout: solubility kinetic at 15 h

# input Supply recorded solubility kinetic at 15 h for CCCCCCCO[C@H]1O[C@H](CO)[C@@H](O)[C@H](O)[C@@H]1O here.
# output > 3000 µg/mL

====

# assay_overview: Apparent permeability across basolateral to apical side in human Caco2 cells by LC/MS analysis
# condition_parameters: Caco-2
assay_readout: Papp B→A
Write the figure, then the unit, nothing else.

# input Input OC[C@H]1O[C@H](Oc2ccc(-c3cc(F)c(O)c(F)c3)cc2)[C@@H](O)[C@@H](O)[C@@H]1O , output reported Papp B→A.
# output 1.9 ×10⁻⁶ cm/s

# input Identify Papp B→A associated with the compound N#CNC(=O)c1ccc(-c2ccc(O[C@H]3O[C@H](CO)[C@@H](O)[C@H](O)[C@@H]3O)cc2)cc1
# output 0.29 ×10⁻⁶ cm/s

# input Note down Papp B→A recorded for N#Cc1ccc(-c2ccc(O[C@H]3O[C@H](CO)[C@@H](O)[C@H](O)[C@@H]3O)c(Cl)c2)cc1
# output 22.1 ×10⁻⁶ cm/s

Hello, I would appreciate it if you could give Papp B→A for each entry below.
1. CS(=O)(=O)c1ccc(-c2ccc(O[C@H]3O[C@H](CO)[C@@H](O)[C@H](O)[C@@H]3O)cc2)cc1
2. NC(=O)c1ccc(-c2ccc(O[C@H]3O[C@H](CO)[C@@H](O)[C@H](O)[C@@H]3O)cc2)cc1
3. CCCCCCCO[C@H]1O[C@H](CO)[C@@H](O)[C@H](O)[C@@H]1O
4. N#Cc1ccc(-c2ccc(O[C@H]3O[C@H](CO)[C@@H](O)[C@H](O)[C@@H]3O)cc2)cc1

# output
["1.76 ×10⁻⁶ cm/s", "0.61 ×10⁻⁶ cm/s", "9.4 ×10⁻⁶ cm/s", "13.2 ×10⁻⁶ cm/s"]

Report Papp B→A for each item below.
1. CNC(=O)c1ccc(-c2ccc(O[C@H]3O[C@H](CO)[C@@H](O)[C@H](O)[C@@H]3O)cc2)cc1
2. O=C(c1ccc(-c2ccc(O[C@H]3O[C@H](CO)[C@@H](O)[C@H](O)[C@@H]3O)cc2)cc1)N1CCOCC1
3. OC[C@H]1O[C@H](Oc2ccc(-c3ccccc3)cc2)[C@@H](O)[C@@H](O)[C@@H]1O

# output
0.87 ×10⁻⁶ cm/s
1.3 ×10⁻⁶ cm/s
19 ×10⁻⁶ cm/s

====

# Tested on: Mus musculus
# assay_overview: Half life in C3H/HeN mouse at 0.625 mg/kg, iv
# Assay type: ADME, organism-based
# Parameters: dose 0.625 mg/kg, route intravenous
# condition_parameters: in vivo
assay_readout: t1/2 (min)
Give bare numbers, in min.

# input Determine from records and report t1/2 for N#Cc1ccc(-c2ccc(O[C@H]3O[C@H](CO)[C@@H](O)[C@H](O)[C@@H]3O)c(Cl)c2)cc1
# output 10.2

====

# assay_overview: Displacement of fluorescently labeled 3'-chloro-N-(2-(3-(3',6'-dihydroxy-3-oxo-3H-spiro[isobenzofuran-1,9'-xanthene]-5-yl)thioureido)ethyl)-4'-((2R,3S,4S,5S,6R)-3,4,5-trihydroxy-6-(hydroxymethyl)tetrahydro-2H-pyran-2-yloxy)biphenyl-4-carboxamide from Escherichia coli recombinant 6-His-tagged FimH CRD expressed in Escherichia coli HM125 after 24 hrs by fluorescence polarization assay
assay_readout: pKd
Numbers only, as −log10 of the molar value.

Field: example entries. Status: answers known.
# input Item N#Cc1ccc(-c2ccc(O[C@H]3O[C@H](CO)[C@@H](O)[C@H](O)[C@@H]3O)cc2)cc1 : provide pKd
# output 8.70

# input Tell me measured pKd for OC[C@H]1O[C@H](Oc2ccc(-c3cc(F)c(O)c(F)c3)cc2)[C@@H](O)[C@@H](O)[C@@H]1O please.
# output 8.43

# input Given OC[C@H]1O[C@H](Oc2ccc(-c3ccc(-c4nnn[nH]4)cc3)cc2)[C@@H](O)[C@@H](O)[C@@H]1O , respond with its pKd.
# output 8.24

# input Tell me measured pKd for O=C(c1ccc(-c2ccc(O[C@H]3O[C@H](CO)[C@@H](O)[C@H](O)[C@@H]3O)cc2)cc1)N1CCOCC1 please.
# output 8.52

# input Given NC(=O)c1ccc(-c2ccc(O[C@H]3O[C@H](CO)[C@@H](O)[C@H](O)[C@@H]3O)cc2)cc1 , respond with its pKd.
# output 8.55

Quick request: pKd for each listed item, please.
1. N#CNC(=O)c1ccc(-c2ccc(O[C@H]3O[C@H](CO)[C@@H](O)[C@H](O)[C@@H]3O)cc2)cc1
2. CNS(=O)(=O)c1ccc(-c2ccc(O[C@H]3O[C@H](CO)[C@@H](O)[C@H](O)[C@@H]3O)cc2)cc1
3. CCCCCCCO[C@H]1O[C@H](CO)[C@@H](O)[C@H](O)[C@@H]1O
4. COC(=O)c1ccc(-c2ccc(O[C@H]3O[C@H](CO)[C@@H](O)[C@H](O)[C@@H]3O)cc2)cc1

# output
1. 8.08
2. 8.57
3. 7.55
4. 8.44
